Tested on: Zika virus NS2B-NS3 protease (unlinked complex)
assay overview: Confirmatory screen GU AMC qHTS for Zika virus inhibitors (AID 1347153); also: nearly all actives have a fitted effect of over 70% in size;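 as to Potency: enzyme at 25 nM with substrate at 10 µM below its Km of 18.3 µM; potency is read from the fitted curve at half-maximal effect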
recorded conditions: Recombinant NS2B-NS3 protease, AMC substrate fluorescence; series mostly up to 111 µM
Inconclusive results are not listed. Calls of active or inactive are those of the source. Calls follow the shape of the dose curve; as a rule, active = well fitted inhibition curve with a large enough effect; inconclusive = small, poorly fitted or top-dose-only effect; inactive = flat fitted curve, though single readings scatter.
metric: Potency

As a guide, the following entries are already answered.
| compound | metric | observed |
| --- | --- | --- |
| C[S+](=O)([O-])c1ccc(OCC2CN(Cc3ccccc3)C(=O)c3c(ccnc3-c3ccc(OCC(=O)O)cc3)O2)cc1 (stereo not given) | Potency | inactive |
| O=C(O)c1cc(NCc2cc(O)ccc2O)ccc1O | Potency | inactive |
| O=C(O)COc1ccc(-c2nccc3c2C(=O)N(Cc2ccccc2)CC(COc2cccc(C(F)(F)F)c2)O3)cc1 (stereo not given) | Potency | 44.1 µM (active) |
| O=S(=O)(N[C@H]1CO[C@H]2[C@@H]1OC[C@@H]2n1nnnc1-c1ccc2c(c1)OCO2)c1ccc2ccccc2c1 | Potency | inactive |

For the next question, use this compound.
Asked: Reported Potency for O=C(O)c1ccc(-c2cccc(C(F)(F)F)c2)cc1 : what is it?
Given back: inactive

---

Test system: DIV14
assay overview: qHTS profiling for inhibitors of Plasmodium falciparum proliferation (AID 504749); also: nearly all actives have a fitted effect of over 60% in size
recorded conditions: P. falciparum in erythrocytes, SYBR Green DNA, 72 h; series mostly up to 28.7 µM
Description: NIH National Institute of Allergy and Infectious Diseases [NIAID] NIH Chemical Genomics Center [NCGC] […] Because mature erythrocytes lack DNA, only Plasmodium-derived DNA is detected. NCGC Assay Protocol Summary: The SYBR Green viability assay was adapted from a method described previously (Plouffe et al., 2008). […] The following morning, fluorescence intensity at 485(14) nm excitation and 535(25) nm emission wavelengths was measured on an EnVision (Perkin Elmer) plate reader. […]
Records with an inconclusive call do not appear. Active and inactive are the calls of the source. The call rests on the fitted dose curve; in most records, active means well fitted inhibition curve with a large enough effect; inconclusive means small, poorly fitted or top-dose-only effect; inactive means flat fitted curve, though single readings scatter.
Please state which outcome applies, choosing from active, inactive

Example entries begin here.
| molecule | discrete label |
| --- | --- |
| CCOC(=O)C(CCc1ccccc1)NC1CCc2ccccc2N(CC(=O)O)C1=O (stereo unspecified) | active |
| C/C=C1\C2C=C(C)CC1(N)c1ccc(=O)[nH]c1C2 (stereo unspecified) | inactive |
| COC(=O)[C@@H]1[C@@H]2C[C@H]3c4[nH]c5ccccc5c4CCN3C[C@@H]2CC[C@@H]1O | inactive |
| CC(C)C[C@@H](NC(=O)[C@H](Cc1ccccc1)NC(=O)c1cnccn1)B(O)O | active |
| C[C@@H](C(=O)O)c1ccc(-c2ccccc2)c(F)c1 | inactive |

Asked: # outcome recorded in this test, key = CC(C)(O)c1ccccc1CC[C@H](SCC1(CC(=O)O)CC1)c1cccc(/C=C/c2ccc3ccc(Cl)cc3n2)c1
Given back: inactive

---

Tested on: Zika virus NS2B-NS3 protease (unlinked complex)
assay overview: Confirmatory screen GU AMC qHTS for Zika virus inhibitors (AID 1347153); also: nearly all actives have a fitted effect of over 70% in size;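 as to Potency: enzyme at 25 nM with substrate at 10 µM below its Km of 18.3 µM; potency is read from the fitted curve at half-maximal effect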
recorded conditions: Recombinant NS2B-NS3 protease, AMC substrate fluorescence; series mostly up to 111 µM
Records with an inconclusive call do not appear. The source made the active and inactive calls. The call rests on the fitted dose curve; in most records, active means well fitted inhibition curve with a large enough effect; inconclusive means small, poorly fitted or top-dose-only effect; inactive means flat fitted curve, though single readings scatter.
metric: Potency

As a guide, the following entries are already answered.
| compound | Potency |
| --- | --- |
| COc1ccc(-c2ccnc(N[C@H]3CO[C@H]4[C@@H]3OC[C@@H]4NS(=O)(=O)c3ccc4ccccc4c3)n2)cc1 | inactive |
| Cc1cccc(C)c1NS(=O)(=O)c1ccc(NS(=O)(=O)c2ccc3c(c2)OCCO3)cc1 | inactive |
| O=C(OCC#CCSc1nnc(-c2ccc(Cl)cc2)o1)c1ccc(F)cc1 | inactive |
| CS(=O)(=O)c1ccc(-c2cn3ccccc3n2)cc1 | 24.1 µM (active) |
| CO[C@H]1C[C@@H](O[C@@H]2/C(C)=C/C[C@@H]3C[C@@H](C[C@]4(CC[C@H](C)[C@@H](C5CCCCC5)O4)O3)OC(=O)[C@@H]3C=C(C)/C(=N/O)[C@H]4OC/C(=C\C=C\[C@@H]2C)[C@]43O)O[C@@H](C)[C@H]1O | inactive |
| CCCCc1nn(-c2ccccc2C(F)(F)F)c(=O)n1Cc1ccc(-c2ccccc2S(=O)(=O)NC(=O)c2sccc2C)cc1 | 21.5 µM (active) |

Asked: Find the measured Potency: item O=C(O)Cn1ccc2cc(OCc3cccc(-c4cccc(C(F)(F)F)c4)c3)cnc21 , target or system Zika virus NS2B-NS3 protease (unlinked complex).
Given back: 40.3 µM (active)

Asked: How about this compound: O=C(O)COc1ccc(-c2nccc3c2C(=O)N(Cc2cccc(C(F)(F)F)c2)CC(COc2cccnc2)O3)cc1 (stereo not drawn)
Given back: inactive
